Measured self-cleavage accompanies every entry in the list below.
B1: Hairpin Ribozyme (parent)
chain: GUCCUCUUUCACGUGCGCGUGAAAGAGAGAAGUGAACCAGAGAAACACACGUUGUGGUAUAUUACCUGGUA

# Variants of: B1
# assay protocol: self-cleavage, relative activity (ratio to wild type); higher = more cleavage; co-transcriptional

In [3]: df
Out[3]:
         var  result
0  C16G A31C  0.0855
1  A45U U70G    0.24
2  U20C G56C   0.216
3  A22G G56A   0.185
4   U5A A39U  0.0927
5   G1A A64C  0.0979
6  A35C G42U   0.342
7  G25U G56U   0.223

Form: variant = G21A A43C ; self-cleavage = 0.153

Form: variant = A39U U70C ; self-cleavage = 0.247

Form: variant = G25A U62G ; self-cleavage = 0.125

Form: variant = C6G A23G ; self-cleavage = 0.446

Form: variant = A22G A61U ; self-cleavage = 0.159
